method summary: Equilibrium solubility of midostaurin in different solvents (HPLC)
Format: physicochemical
experimental parameters: organic solvent or mixture, thermodynamic from solid; Labrasol; 25° C., 24-72 hours; read-out: solubility in Labrasol
measured attribute: solubility

>>> print(df.to_string())
                                   compound  reported_result
0  CO[C@@H]1[C@H](N(C)C(=O)c2ccccc2)C[C@H]2O[C@]1(C)n1c3ccccc3c3c4c(c5c6ccccc6n2c5c31)C(=O)NC4 [Midostaurin, midostaurin]       > 50 mg/mL

---

method summary: Equilibrium solubility of midostaurin in different solvents (HPLC)
Type: physicochemical
experimental parameters: oil or lipid, thermodynamic from solid; soybean oil; 25° C., 24-72 hours; read-out: solubility in soybean oil
Protocol: Many different solvents were evaluated for their compatibility with midostaurin. […] Solubility was measured by HPLC.
measured attribute: solubility

In [3]: df
Out[3]:
                                chem_smiles  measured_attribute  reported_result
0  CO[C@@H]1[C@H](N(C)C(=O)c2ccccc2)C[C@H]2O[C@]1(C)n1c3ccccc3c3c4c(c5c6ccccc6n2c5c31)C(=O)NC4          solubility    < 10000 µg/mL

---

method summary: Equilibrium solubility of midostaurin in different solvents (HPLC)
Type: physicochemical
experimental parameters: organic solvent or mixture, thermodynamic from solid; ethanol; 25° C., 24-72 hours; read-out: solubility in ethanol
measured attribute: solubility

In [3]: df
Out[3]:
                                   molecule  reported_result
0  CO[C@@H]1[C@H](N(C)C(=O)c2ccccc2)C[C@H]2O[C@]1(C)n1c3ccccc3c3c4c(c5c6ccccc6n2c5c31)C(=O)NC4 [Midostaurin, midostaurin]    < 10000 µg/mL

---

method summary: Equilibrium solubility of midostaurin in different solvents (HPLC)
Assay type: physicochemical
experimental parameters: organic solvent or mixture, thermodynamic from solid; glycerol; 25° C., 24-72 hours; read-out: solubility in glycerol
Description: Many different solvents were evaluated for their compatibility with midostaurin. […] Solubility was measured by HPLC.
measured attribute: solubility

In [3]: df
Out[3]:
                                chem_smiles  reported_result
0  CO[C@@H]1[C@H](N(C)C(=O)c2ccccc2)C[C@H]2O[C@]1(C)n1c3ccccc3c3c4c(c5c6ccccc6n2c5c31)C(=O)NC4    < 10000 µg/mL

---

method summary: Equilibrium solubility of midostaurin in different solvents (HPLC)
Assay type: physicochemical
experimental parameters: organic solvent or mixture, thermodynamic from solid; Tween 80; 25° C., 24-72 hours; read-out: solubility in Tween 80
measured attribute: solubility

>>> df
                                   molecule  measured_attribute  reported_result
0  CO[C@@H]1[C@H](N(C)C(=O)c2ccccc2)C[C@H]2O[C@]1(C)n1c3ccccc3c3c4c(c5c6ccccc6n2c5c31)C(=O)NC4 [Midostaurin, midostaurin]          solubility       > 50 mg/mL
